Each record here notes measured Kd.
Tested System: T1, serum purified human Complement Factor D (human, UniProt P00746 26-253)
T1 construct: Serum purified protein flowed over the captured antibodies; also called CFD; human CFD
T1 sequence (P00746 26-253): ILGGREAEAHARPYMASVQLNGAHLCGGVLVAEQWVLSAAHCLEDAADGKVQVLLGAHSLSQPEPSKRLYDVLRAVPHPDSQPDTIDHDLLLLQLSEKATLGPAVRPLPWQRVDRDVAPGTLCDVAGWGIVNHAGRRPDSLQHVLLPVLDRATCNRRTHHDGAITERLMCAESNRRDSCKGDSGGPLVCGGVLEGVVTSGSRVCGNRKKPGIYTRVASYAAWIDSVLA
Protocol Summary: SPR Biacore, antibody on protein A chip, single cycle kinetics, 25 C;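 also: antibodies captured to roughly 70 RU on the protein A surface in HBS-EP+ running buffer, with kinetic constants derived by BIAevaluation fitting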
Value Kind: Kd (nM)

Binder	Result Units	Quantitative Result
54V59D / 32W50I101V (antibody, V domains shown, KCD119 TAF variant; full antibody captured on protein A) VH: EVQLVESGGGLVQPGGSLRLSCAASGYTFTDYYMNWVRQAPGKGLEWIGDINPVTGDTDYNADFKRRFTFSLDTSKSTAYLQMNSLRAEDTAVYYCTREGPSFAYWGQGTLVTVSS VL: DIQLTQSPSSLSASVGDRVTITCRSSQTIVHWNGDTYLEWYQQKPGKAPILLIYKVSNRFSGVPSRFSGSGSGTDFTLTISSLQPEDFATYYCFQGSHVPVTFGQGTKVEIK	nM	0.0158
31S54I59D84T / 32W60W101V (antibody, V domains shown, KCD119 TAF variant; full antibody captured on protein A) VH: EVQLVESGGGLVQPGGSLRLSCAASGYTFTSYYMNWVRQAPGKGLEWIGDINPITGDTDYNADFKRRFTFSLDTSKSTAYLQMTSLRAEDTAVYYCTREGPSFAYWGQGTLVTVSS VL: DIQLTQSPSSLSASVGDRVTITCRSSQTIVHWNGDTYLEWYQQKPGKAPNLLIYKVSNRWSGVPSRFSGSGSGTDFTLTISSLQPEDFATYYCFQGSHVPVTFGQGTKVEIK	nM	0.0157
54V / 101V (antibody, V domains shown, KCD119 TAF variant; full antibody captured on protein A) VH: EVQLVESGGGLVQPGGSLRLSCAASGYTFTDYYMNWVRQAPGKGLEWIGDINPVTGDTSYNADFKRRFTFSLDTSKSTAYLQMNSLRAEDTAVYYCTREGPSFAYWGQGTLVTVSS VL: DIQLTQSPSSLSASVGDRVTITCRSSQTIVHSNGDTYLEWYQQKPGKAPNLLIYKVSNRFSGVPSRFSGSGSGTDFTLTISSLQPEDFATYYCFQGSHVPVTFGQGTKVEIK	nM	0.0688
31S54I59D / 50I60W101V (antibody, V domains shown, KCD119 TAF variant; full antibody captured on protein A) VH: EVQLVESGGGLVQPGGSLRLSCAASGYTFTSYYMNWVRQAPGKGLEWIGDINPITGDTDYNADFKRRFTFSLDTSKSTAYLQMNSLRAEDTAVYYCTREGPSFAYWGQGTLVTVSS VL: DIQLTQSPSSLSASVGDRVTITCRSSQTIVHSNGDTYLEWYQQKPGKAPILLIYKVSNRWSGVPSRFSGSGSGTDFTLTISSLQPEDFATYYCFQGSHVPVTFGQGTKVEIK	nM	0.00774
31S34I54I59D / 32W60W101V (antibody, V domains shown, KCD119 TAF variant; full antibody captured on protein A) VH: EVQLVESGGGLVQPGGSLRLSCAASGYTFTSYYINWVRQAPGKGLEWIGDINPITGDTDYNADFKRRFTFSLDTSKSTAYLQMNSLRAEDTAVYYCTREGPSFAYWGQGTLVTVSS VL: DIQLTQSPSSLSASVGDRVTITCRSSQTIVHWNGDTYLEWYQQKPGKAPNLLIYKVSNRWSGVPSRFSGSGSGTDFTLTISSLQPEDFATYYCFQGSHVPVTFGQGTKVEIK	nM	0.0172
